system: RPMI-8226; experiment: NCI tumour cell line growth inhibition, 48 h
Activity calls are given as the source filed them. Rule as the data show it: active = GI50 up to about 1.1 µM and inactive = higher.
Known GI50 of a selection of compounds
Value kind: GI50

O=C(CCCN1CCC2(CC1)CC(=O)N(N1CCOCC1)C2=O)c1ccccc1 :: > 100 µM (inactive)
Cc1cc(NS(=O)(=O)c2ccc(NC(=O)c3ccc4nc5ccccc5c(Nc5ccc(S(=O)(=O)N=C(N)N)cc5)c4c3)cc2)no1 :: 23.7 µM (inactive)
COc1ccc(/N=N/C(=O)NC(CC(C)C)C(=O)NC(CC(C)C)C(=O)O)cc1 (stereo not given) :: > 100 µM (inactive)
COc1cc2c(cc1OC)C1[C@@H](c3ccccc3)OCN1CC2 (stereo not given in full) :: 44.4 µM (inactive)
Cn1c(=O)[nH]c2[nH]c3ccccc3c2c1=O :: 92 µM (inactive)

* * *

tested on: IGROV-1; test: NCI tumour cell line growth inhibition, 48 h
The source made the active and inactive calls. No stated cut-off is given here; in the data, active = GI50 up to about 1.1 µM and inactive = higher.
Value kind: GI50

Cc1cc2nc(N3C(=O)/C(=C/Cc4ccco4)N=C3c3ccccc3)sc2cc1C :: 21.3 µM (inactive)
CNc1ccc(N)cc1C(=O)N1CCC[C@H]1CO :: > 100 µM (inactive)
O=C(Nc1ccc(Cl)c(Cl)c1)OCCN1c2ccccc2Sc2ccccc21 :: > 10 µM (inactive)
O=C1Nc2ccc(Cl)cc2C(=O)N2CCC[C@@H]12 :: > 100 µM (inactive)
C=CC1(C(=O)O)CCC(C(C)(C)C)CC1 (stereo not drawn) :: > 100 µM (inactive)
c1nc2nc[nH]c(SSc3[nH]cnc4ncnc3-4)c-2n1 :: > 22.3 µM (inactive)
COC1CCCc2c(OC(C)=O)ccc(OC(C)=O)c21 (stereo not drawn) :: > 100 µM (inactive)
O=C1c2ccccc2C(=O)c2c(Nc3ccc4c5c(cccc35)C(=O)c3ccccc3-4)cccc21 :: 71.1 µM (inactive)
Cc1cn(C2CC(O)C(COP(=O)(O)OC3CC(n4c[n+]([BH2-]C#N)c5c(=O)[nH]c(N)nc54)OC3CO)O2)c(=O)[nH]c1=O (stereo not drawn) :: > 100 µM (inactive)
CC(C)C1NC(=O)[C@H](C)OC(=O)[C@@H](C(C)C)NC(=O)[C@@H](C)OC(=O)C(C(C)C)NC(=O)[C@H](C)OC1=O (stereo partly drawn) :: > 100 µM (inactive)
CCOC(=O)c1c(-c2ccccc2)c(OC)cn1C :: > 10 µM (inactive)
C=C1c2nc3ccccc3n2C=C(c2ccccc2)N1c1ccc(OC)cc1 :: 11 µM (inactive)
Clc1ccc(-c2nc3cc(Cl)ccc3[nH]2)cc1 :: 43.4 µM (inactive)

* * *

system: ACHN; assay: NCI tumour cell line growth inhibition, 48 h
Activity calls are given as the source filed them. Rule as the data show it: active = GI50 up to about 1.1 µM and inactive = higher.
Value kind: GI50

CCOC(=O)C(C(=O)c1ccccc1-c1ccccc1C(=O)O)=P(c1ccccc1)(c1ccccc1)c1ccccc1 :: 30 µM (inactive)
C[C@]12CCC3[C@@H](CC[C@@H]4c5nonc5CC[C@]34C)C1CC[C@@H]2O (stereo not given in full) :: 23.6 µM (inactive)
Cc1cccc2oc3c(CC(=O)O)cccc3c(=O)c12 :: > 100 µM (inactive)
O=C(O)c1cccc(/N=N/c2c(S(=O)(=O)O)ccc3c2C(=O)c2ccccc2C3=O)c1O :: > 100 µM (inactive)
C1=C2C3=[N+](CCCC3)CC2Cc2sccc21 (stereo not given) :: > 100 µM (inactive)
c1cc2nnsc2s1 :: > 100 µM (inactive)
Cc1cc(O)nc2cc3oc4ccccc4c3cc12 :: 24.2 µM (inactive)
Cn1ccc2c(c1=O)C(=O)OC2(C)C :: > 100 µM (inactive)
C/C(=N/NC(=S)Nc1ccccc1Cl)c1cccc(/C(C)=N\NC(=S)Nc2ccccc2Cl)n1 :: 55.5 µM (inactive)
[N-]=[N+]=NC(CCl)c1cn([C@H]2C[C@H](O)[C@@H](CO)O2)c(=O)[nH]c1=O (stereo not given in full) :: > 100 µM (inactive)
CCOC(C[C@H](O)[C@H]1COC(=S)S1)OCC :: > 100 µM (inactive)
O=C(O)CC(O)(c1ccccc1C(=O)O)c1cccc2ccccc12 (stereo not given) :: > 100 µM (inactive)
COC1C=C(Nc2cccc(Cl)c2)C(=O)C1 (stereo not given) :: 60 µM (inactive)
CC(C)CC(NC(=O)OC(C)(C)C)C(=O)Nc1ccc(Nc2nc(F)nc(-c3c4ccccc4c4n3CCS4)n2)cc1 (stereo not given) :: 24.3 µM (inactive)
CC1CN=C(Nc2cccc(C(F)(F)F)c2)S1 (stereo not given) :: > 100 µM (inactive)
N#CCCN(CCC#N)CCN(CCN(CCC#N)CCC#N)CCN(CCC#N)CCC#N :: > 100 µM (inactive)
COc1ccc(N2C(=O)c3cc([N+](=O)[O-])cnc3S2(=O)=O)cc1 :: > 100 µM (inactive)
O=C1C[C@@H]2[C@@H](c3ccccc3)[C@@H]3C(=O)c4ccccc4NC(=O)[C@H]3[C@]2(O)c2ccccc2N1 :: > 100 µM (inactive)
COc1cc2c(c(OC)c1OC)-c1ccc(OC)c(=O)cc1C(NC(=O)CCCCCNc1ccc(N=[N+]=[N-])cc1[N+](=O)[O-])CC2 (stereo not given) :: 0.0271 µM (active)
CNc1ncnc2c1ncn2C1C=CC(COS(N)(=O)=O)C1 (stereo not given) :: > 100 µM (inactive)

* * *

system: 786-0; assay: NCI tumour cell line growth inhibition, 48 h
Active and inactive are the calls of the source. No stated cut-off is given here; in the data, active = GI50 up to about 1.1 µM and inactive = higher.
Listed here: items and their measured GI50.
Value kind: GI50

N/N=C1/C2CN3CCN(C2)CC1(c1ccc([N+](=O)[O-])cc1)C3 :: > 100 µM (inactive)
Nc1c(S(N)(=O)=O)cc(S(N)(=O)=O)cc1S(N)(=O)=O :: > 100 µM (inactive)
CCCN(CCC)C(=O)Cc1c2n(c3ccccc13)CCCc1ccccc1-2 :: 16.9 µM (inactive)
CC1=C(C(=O)CC(=O)C(=O)Nc2ccccc2C(F)(F)F)Sc2ccccc2N1 :: > 100 µM (inactive)
OC(c1ccccc1)(c1ccccc1)c1ccncc1 :: 66.1 µM (inactive)
O=C1c2ccccc2CCC1C(O)(C(F)(F)F)C(F)(F)F (centres undefined) :: > 100 µM (inactive)
Cc1ccc(S(=O)(=O)N2CCN3C(=O)c4ccccc4C32c2ccc(F)cc2)cc1 (centres undefined) :: > 100 µM (inactive)
CC(=O)OC1c2ccccc2CCCCCCC12OCCO2 (centres undefined) :: > 100 µM (inactive)
CCCn1c(SCCSc2c3ccccc3c(-c3nc(F)nc(F)n3)n2CCC)c2ccccc2c1-c1nc(F)nc(F)n1 :: > 100 µM (inactive)
NNC(=O)c1ccccc1NC(=O)/C(=C/c1ccccc1)NC(=O)c1ccccc1 :: > 100 µM (inactive)
CC1(C)Oc2ccc3ccc(=O)oc3c2C(O)C1O (centres undefined) :: 45 µM (inactive)
COc1ccc(-c2c(C#N)c(N)nc3c2CCS(=O)(=O)c2ccccc2-3)cc1 :: 68.2 µM (inactive)
COc1ccc(N2C(=O)C3c4[nH]c5ccccc5c4C4CCCCC4C3C2=O)cc1 (centres undefined) :: 11.1 µM (inactive)
CCO[C@@]12CCC3CC4CC[C@@](OCC)(O1)C4C32 (some centres undefined) :: > 100 µM (inactive)

* * *

system: HOP-62; test: NCI tumour cell line growth inhibition, 48 h
Calls of active or inactive are those of the source. Cut-off read from the data, not from the text of the source: active = GI50 up to about 1.1 µM and inactive = higher.
Classes used: Yes (active), No (inactive)

CCOC(=O)/C=C/C1=C(Br)[C@@]2(C)CC[C@@H]3c4ccc(O)cc4CC[C@H]3[C@@H]2C1 :: No
O=C(Nc1ccc2ccccc2c1)Nn1cnnc1 :: No
CC(=O)O[C@H]1C(=O)[C@@]2(C)[C@H]([C@H](OC(=O)c3ccccc3)[C@]3(O)C[C@H](OC(=O)[C@H](O)[C@@H](NC(=O)c4ccc(N)cc4)c4ccccc4)C(C)=C1C3(C)C)[C@]1(OC(C)=O)CO[C@@H]1C[C@@H]2O :: Yes
O=C(O)C(CS)Nc1c2ccccc2[n+]([O-])c2ccccc12 (centres undefined) :: No

* * *

test system: OVCAR-5; experiment: NCI tumour cell line growth inhibition, 48 h
Activity calls are given as the source filed them. No stated cut-off is given here; in the data, active = GI50 up to about 1.1 µM and inactive = higher.
Value kind: GI50

OCCCCCNc1ccnc2cc(Cl)ccc12 :: 83.2 µM (inactive)
CCN(CC)c1c(C(C)(C)C)c(=O)n2ccsc2c1OC(C)=O :: 15.8 µM (inactive)
COc1cc(Nc2nc3cc(C(F)(F)F)ccc3nc2-c2ccccc2)cc(OC)c1OC :: > 100 µM (inactive)
O=C1CC(=O)n2cnc3cccc(c32)N1 :: > 100 µM (inactive)
Fc1c(F)c(C(F)(F)F)c(F)c(F)c1N/N=C\c1c[nH]c2ccccc12 :: 3.94 µM (inactive)
[N-]=[N+]=NC(CCl)c1cn([C@H]2C[C@H](O)[C@@H](CO)O2)c(=O)[nH]c1=O (some centres undefined) :: > 100 µM (inactive)
O=C(Nc1ccc(Cl)cc1)c1cccc([N+](=O)[O-])c1O :: 12 µM (inactive)
CC(C)(C)[Si](OC1CC(n2cnc3c(N)ncnc32)OC1CO)(c1ccccc1)c1ccccc1 (centres undefined) :: 18.6 µM (inactive)
N#CC(C#N)=Cc1c[nH]c(=O)[nH]c1=O :: > 100 µM (inactive)
CCCCCCCCCCCC/C=C\CC[C@@H](O)[C@H](O)CC[C@H](O)[C@@H]1CC[C@@H](CCCCCCCC2=C[C@H](C)OC2=O)O1 :: 18.5 µM (inactive)
O=C(NCCCCCCNC(=O)n1cc(F)c(=O)[nH]c1=O)NCCCOCCOCCCNC(=O)C(O)C(O)C(O)C(O)CO (centres undefined) :: > 2.5 µM (inactive)
c1nc2nc[nH]c(SSc3[nH]cnc4ncnc3-4)c-2n1 :: 4.4 µM (inactive)
Nc1n2nc(-c3ccccc3)sc2n[n+]1CC(=O)c1ccccc1 :: 34.8 µM (inactive)
O=C1c2c(Br)sc(Br)c2C(NC(=O)C(F)(F)F)C1O (centres undefined) :: 19.7 µM (inactive)
CN(C)Cc1cc(/N=N/c2ccc(Cl)cc2)ccc1O :: 12.1 µM (inactive)
COc1ccc(/N=C(/[N-]n2c(=O)c(C)nn(C)c2=S)N(c2ccc(OC)cc2)c2n[n+]3c(=O)c(C)nn(C)c3s2)cc1 :: > 100 µM (inactive)
COc1ccc(OC)c(C(=O)/C=C/c2cc(O)c(O)cc2F)c1 :: 13 µM (inactive)
Cn1c(=O)[nH]c2c(c1=O)C(=O)CN2 :: > 100 µM (inactive)
O=C1N[C@@H]([C@H]2CC[C@H](Cl)CN2)C(=O)N[C@H]1[C@H]1CC[C@H](Cl)CN1 :: 1.25 µM (inactive)
COc1ccc(/N=N/C(=O)NC(CC(C)C)C(=O)NC(CC(C)C)C(=O)O)cc1 (centres undefined) :: 4.02 µM (inactive)
[N-]=[N+]=Nc1c(Cc2ccccc2)c(Cl)nc2ccccc12 :: 31 µM (inactive)
CC(C)C1NC(=O)[C@H](C)OC(=O)[C@@H](C(C)C)NC(=O)[C@@H](C)OC(=O)C(C(C)C)NC(=O)[C@H](C)OC1=O (some centres undefined) :: > 100 µM (inactive)
CC1=C/C(=C2/N=C(N(C)C)SS2)C(C)=N1.[O-][Cl+3]([O-])([O-])O :: > 100 µM (inactive)
CCOC(=O)NC(=O)c1cn(CCNCCO)c(=O)[nH]c1=O :: > 100 µM (inactive)
